molecular target: Fatty acid synthase (FAS) (Gallus gallus, UniProt P12276); construct: FAS purified from chicken liver; experiment: spectrophotometric NADPH oxidation assay ([…] nm) of purified FAS, overall and KR reactions; time-dependent inhibition and Lineweaver-Burk kinetics
Sequence (P12276 2-2512): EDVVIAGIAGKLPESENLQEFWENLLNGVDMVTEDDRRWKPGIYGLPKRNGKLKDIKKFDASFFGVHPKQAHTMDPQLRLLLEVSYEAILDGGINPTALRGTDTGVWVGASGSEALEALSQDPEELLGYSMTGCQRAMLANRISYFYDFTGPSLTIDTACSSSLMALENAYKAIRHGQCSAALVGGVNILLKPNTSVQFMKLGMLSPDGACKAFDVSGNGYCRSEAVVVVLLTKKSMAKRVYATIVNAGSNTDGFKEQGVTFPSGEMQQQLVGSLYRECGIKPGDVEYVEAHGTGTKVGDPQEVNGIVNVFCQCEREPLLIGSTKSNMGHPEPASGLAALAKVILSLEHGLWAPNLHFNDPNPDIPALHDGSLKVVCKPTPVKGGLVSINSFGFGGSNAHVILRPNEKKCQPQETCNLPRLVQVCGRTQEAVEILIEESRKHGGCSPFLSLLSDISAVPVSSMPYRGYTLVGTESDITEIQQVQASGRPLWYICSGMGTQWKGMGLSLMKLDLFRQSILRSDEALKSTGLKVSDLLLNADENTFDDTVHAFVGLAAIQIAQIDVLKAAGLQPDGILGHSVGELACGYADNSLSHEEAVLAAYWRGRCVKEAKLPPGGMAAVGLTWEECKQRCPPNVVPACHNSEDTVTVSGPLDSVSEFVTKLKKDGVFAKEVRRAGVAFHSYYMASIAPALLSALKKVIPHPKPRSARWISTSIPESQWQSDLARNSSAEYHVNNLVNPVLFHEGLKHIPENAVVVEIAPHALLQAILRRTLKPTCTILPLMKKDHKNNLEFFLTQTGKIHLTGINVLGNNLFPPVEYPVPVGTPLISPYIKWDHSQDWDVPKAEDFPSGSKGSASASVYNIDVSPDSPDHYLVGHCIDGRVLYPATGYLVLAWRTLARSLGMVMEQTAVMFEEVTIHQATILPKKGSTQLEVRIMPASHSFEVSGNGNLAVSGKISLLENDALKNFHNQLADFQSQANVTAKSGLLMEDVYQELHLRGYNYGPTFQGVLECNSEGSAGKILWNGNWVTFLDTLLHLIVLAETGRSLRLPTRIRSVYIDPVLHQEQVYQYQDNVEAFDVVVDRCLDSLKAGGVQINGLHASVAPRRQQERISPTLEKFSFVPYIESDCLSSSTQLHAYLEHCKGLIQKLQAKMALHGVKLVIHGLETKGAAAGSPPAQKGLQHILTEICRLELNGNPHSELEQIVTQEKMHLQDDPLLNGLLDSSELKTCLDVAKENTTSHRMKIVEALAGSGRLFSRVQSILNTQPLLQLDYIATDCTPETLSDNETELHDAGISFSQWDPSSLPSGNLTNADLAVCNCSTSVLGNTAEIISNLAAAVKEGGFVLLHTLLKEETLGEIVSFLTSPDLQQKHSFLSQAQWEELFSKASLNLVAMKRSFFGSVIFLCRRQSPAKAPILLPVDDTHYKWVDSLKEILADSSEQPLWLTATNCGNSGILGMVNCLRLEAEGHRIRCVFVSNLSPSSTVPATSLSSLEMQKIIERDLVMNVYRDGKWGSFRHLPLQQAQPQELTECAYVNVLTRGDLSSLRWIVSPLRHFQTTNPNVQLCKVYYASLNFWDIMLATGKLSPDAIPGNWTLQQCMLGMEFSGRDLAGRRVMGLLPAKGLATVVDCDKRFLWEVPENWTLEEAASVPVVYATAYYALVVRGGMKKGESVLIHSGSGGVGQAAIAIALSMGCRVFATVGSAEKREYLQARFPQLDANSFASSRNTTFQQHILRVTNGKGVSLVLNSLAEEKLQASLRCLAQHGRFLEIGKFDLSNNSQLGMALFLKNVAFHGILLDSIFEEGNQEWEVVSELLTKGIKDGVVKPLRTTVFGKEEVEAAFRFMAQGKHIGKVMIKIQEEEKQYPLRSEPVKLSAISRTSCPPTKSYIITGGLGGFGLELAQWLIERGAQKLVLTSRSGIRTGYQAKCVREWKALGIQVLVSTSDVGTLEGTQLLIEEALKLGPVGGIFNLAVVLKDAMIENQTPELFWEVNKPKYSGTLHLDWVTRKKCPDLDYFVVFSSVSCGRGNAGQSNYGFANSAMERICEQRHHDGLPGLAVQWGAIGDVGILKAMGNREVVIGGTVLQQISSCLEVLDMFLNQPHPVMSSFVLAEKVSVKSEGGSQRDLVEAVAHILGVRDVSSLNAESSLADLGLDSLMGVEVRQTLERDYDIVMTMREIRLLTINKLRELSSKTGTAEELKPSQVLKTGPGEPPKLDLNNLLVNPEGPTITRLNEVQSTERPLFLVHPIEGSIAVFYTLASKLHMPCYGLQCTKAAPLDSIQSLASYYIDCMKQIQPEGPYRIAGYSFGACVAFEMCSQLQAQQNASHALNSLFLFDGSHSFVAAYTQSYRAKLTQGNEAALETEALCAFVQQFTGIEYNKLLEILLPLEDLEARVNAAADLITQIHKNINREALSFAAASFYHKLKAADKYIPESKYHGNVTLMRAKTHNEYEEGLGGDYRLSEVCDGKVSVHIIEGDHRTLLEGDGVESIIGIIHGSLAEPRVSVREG
Readout label: IC50 (µM)
# number only, unit µM dropped from output

Reported IC50 for Oc1ccc(/C=C/c2cc(O)cc(O)c2)cc1 [resveratrol, 3,5,4′-trihydroxystilbene] : what is it? 48.6
